# system-name: Recombinant human Bcl-xL with a 25 amino acid truncation of its C-terminus (human) (UniProt Q07817)
# Sequence (Q07817 1-208): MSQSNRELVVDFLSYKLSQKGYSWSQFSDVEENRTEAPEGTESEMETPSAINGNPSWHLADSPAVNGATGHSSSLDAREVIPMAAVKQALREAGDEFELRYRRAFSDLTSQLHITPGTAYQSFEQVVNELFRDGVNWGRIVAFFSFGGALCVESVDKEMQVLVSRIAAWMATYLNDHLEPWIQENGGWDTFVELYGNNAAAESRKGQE
# method-notes: competition phage ELISA
pIC50: −log10 of the molar value.
pIC50 values for the binders below.
recorded-metric: pIC50

> print(dat)
                                     binder  measured.number
1  PSSAMGQVGRQLAIIGDDINRRYDSE [Bak BH3 T4A, phage-displayed]             7.55
2  QEDIIRNIARHLAQVGDSMDRSIPPE [Bid BH3 G26E, phage-displayed]             7.77
3  NLWAAQRYGRELRRMSAEFVDSFKKG [Bad BH3 D17A, phage-displayed]             7.80
4  QEDIIRNIARHLAAVGDSMDRSIPPG [Bid BH3 Q14A, phage-displayed]             7.89
